Entries and their measured SPOT peptide array binding signal intensity follow.
- target_of_assay: SpNbp2
- procedure_details: SPOT peptide array binding signal intensity (averaged, normalized) (arbitrary units (background-subtracted, floor 0; scale differs between SH3 domains)); higher = stronger binding of the SH3 domain to the peptide
Response field accepts a number only; no unit should be typed.

Reference set (5 entries):
• GSKSGPPPRPKKPST = 5
• HRRRRVFSIPSLKSI = 1660
• MKRSRPSRSIPYTTP = 224
• IFLRISINFPLNYPN = 1680
• FIRKRAPTPPAPSRS = 75

Please give the documented SPOT peptide array binding signal intensity of GKKVRPLLVLLLSRA
1290

Indicate its recorded SPOT peptide array binding signal intensity; the binder in question is YHSRRHPLALGFKYV
53

Specify SPOT peptide array binding signal intensity for DFTLPPPPPPPGLDE and stop.
9

Given FLIKFTPKFPQSIDH , respond with its SPOT peptide array binding signal intensity.
1010

State its SPOT peptide array binding signal intensity for this binder: RKQRSIPLSPIVPES
115

Identify SPOT peptide array binding signal intensity associated with the binder NRARYLPQNPDIIAG
3

Quickly give me recorded SPOT peptide array binding signal intensity for RPVPPPPPMRTTTEG
191

Identify the reported SPOT peptide array binding signal intensity for the following entry. FPPKRKPLLRPQRSD
286

Provide SPOT peptide array binding signal intensity value for the following binder: ALFRLSFFFPLDPAY
2350

Read the entry NQARKPFLLPATELS and write its reported SPOT peptide array binding signal intensity.
7

Provide one value: measured SPOT peptide array binding signal intensity of DAPASKPSVPPRNYF
3

Note down SPOT peptide array binding signal intensity recorded for KKIRLIFTYPSTVGR
1780

Please give measured SPOT peptide array binding signal intensity of the following entry: IRMPSNPALPKKLLN
241

For the binder VPPVPLPFGIPPFPM , give its measured SPOT peptide array binding signal intensity value.
7

Using the record for SHRLWLYAAPKRPKT , state its measured SPOT peptide array binding signal intensity.
30

Write down SPOT peptide array binding signal intensity measured for item NSMRPPLLIPAATTK
116

Identify measured SPOT peptide array binding signal intensity associated with NLDRSKISLPDFDDE
16

Input IVNKPLPPLPVAGSS , output reported SPOT peptide array binding signal intensity.
11

Return value of SPOT peptide array binding signal intensity for input QHQQRQPKRPKRYSL , no commentary.
267

Given LLLLFVPDSPYDPAI , respond with its SPOT peptide array binding signal intensity.
195
